- system under test: T1, cynomolgus suPAR (cynomolgus, UniProt Q9GK78 23-303, limits assumed)
- T1 construct: Target antigen of the off-rate screen; also called cynomolgus uPAR; cynoPLAUR-His
- T1 sequence (Q9GK78 23-303 limits assumed): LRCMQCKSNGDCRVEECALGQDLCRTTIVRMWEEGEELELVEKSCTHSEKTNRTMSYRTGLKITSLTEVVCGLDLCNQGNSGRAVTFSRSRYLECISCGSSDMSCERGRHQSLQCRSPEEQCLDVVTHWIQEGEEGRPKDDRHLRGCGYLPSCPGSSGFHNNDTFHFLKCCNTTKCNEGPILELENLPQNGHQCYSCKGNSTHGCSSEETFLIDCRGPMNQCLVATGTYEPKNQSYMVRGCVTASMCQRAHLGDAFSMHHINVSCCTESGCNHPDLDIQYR
- assay comment: BLI (Octet) off-rate screen of scFv clones
endpoint: koff (s⁻¹)
Give a bare numeral; the unit s⁻¹ is implied.

# binder, koff (s⁻¹)
data = [
    ("suPAR_DB03_A03 (scFv, V domains shown, screened as scFv) VH: QVQLVQSGAEVKKPGASVKVSCKASGYTFTGYYMHWVRQAPGQGLEWMGWIDHENGSTIYDQKFQGRVTMTRDTSTSTVYMELSSLRSEDTAVYYCAVGYDVDWFVYWGQGTLVTVSS VL: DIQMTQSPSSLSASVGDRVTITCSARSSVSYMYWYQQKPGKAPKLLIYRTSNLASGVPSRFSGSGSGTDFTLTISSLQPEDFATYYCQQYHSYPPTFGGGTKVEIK", 0.000319),
]

Problem: Note koff for the binder shown: suPAR_DB03_A06 (scFv, V domains shown, screened as scFv) VH: QVQLVQSGAEVKKPGASVKVSCKASGFNITDYYIHWVRQAPGQGLEWMGWIDPENGSTIYAQKFQGRVTMTRDTSTSTVYMELSSLRSEDTAVYYCARGYDVDWFVYWGQGTLVTVSS VL: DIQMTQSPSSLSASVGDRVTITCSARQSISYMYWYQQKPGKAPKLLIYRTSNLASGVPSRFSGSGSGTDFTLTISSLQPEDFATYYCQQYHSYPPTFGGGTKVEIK
Result: 6.32e-07
